- Measurement Target: 5-hydroxytryptamine receptor 4 (Homo sapiens)
- Sequence (Q13639 whole entry): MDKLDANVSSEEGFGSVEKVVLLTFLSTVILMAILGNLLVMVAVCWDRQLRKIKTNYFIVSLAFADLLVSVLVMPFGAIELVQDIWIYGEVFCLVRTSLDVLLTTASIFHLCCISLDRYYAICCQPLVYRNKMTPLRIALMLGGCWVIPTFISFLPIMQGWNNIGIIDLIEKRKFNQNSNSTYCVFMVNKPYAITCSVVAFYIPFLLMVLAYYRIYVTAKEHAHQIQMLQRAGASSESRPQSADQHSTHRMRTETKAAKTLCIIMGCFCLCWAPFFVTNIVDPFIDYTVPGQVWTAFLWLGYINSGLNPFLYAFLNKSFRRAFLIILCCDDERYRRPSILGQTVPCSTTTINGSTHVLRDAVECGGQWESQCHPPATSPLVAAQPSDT
Measurement Type: pKi
The read-out pKi is expressed as -log10 of concentration in moles per litre.

Notebook entry, 5-hydroxytryptamine receptor 4 (Homo sapiens) assay: pKi of CC1CCN(CC[C@H]2CCCN2S(=O)(=O)c2cccc(Br)c2)CC1 = ?
5.20

* * *

pKi: −log10 of the molar value.
Heads up, these compounds all have pKi values measured for 5-hydroxytryptamine receptor 1F (Homo sapiens).
Measurement Type: pKi

I. CC1CCN(CC[C@H]2CCCN2S(=O)(=O)c2ccc(Cl)c(Cl)c2)CC1
II. CC1CCN(CC[C@H]2CCCN2S(=O)(=O)c2cccc(Br)c2)CC1
Which entry shows the lesser value of pKi here, I or II ? Kindly give the label for the entry you pick.
II

These measurements were taken from BindingDB's records for doi:10.1021/jm991151j.
